Cited source: patent US10889584B2

target.or.system: α-synuclein peptide fragments (Peptide 4F, CTGFVKKDQLGK) (Homo sapiens)
experiment.description: In-vitro fluorescence polarization assay with alpha-synuclein peptide fragment (4F)
details: peptide 4F 100 nM, 120 min at room temperature, compound 33.3 to 0.015 microM, 50 mM HEPES pH 7.4, 50 mM NaCl, read-out: IC50 (inhibition of self-aggregation of α-synuclein peptide fragment 4F)
pIC50: −log10 of the molar value.
experimental.readout: pIC50

Example molecules with recorded pIC50:
>  <molecule>
CCCCC(Cc1c[nH]c2ccccc12)NC(=O)c1cnc(N2CCn3c(nnc3C(F)(F)F)C2)s1 (centres unmarked)

>  <experimental.readout>
pIC50

>  <recorded.measurement>
5.92

$$$$
>  <molecule>
CCCCC(Cc1c[nH]c2ccccc12)NC(=O)c1cnc(N2CCn3nc(C)cc3C2)s1 (centres unmarked)

>  <experimental.readout>
pIC50

>  <recorded.measurement>
5.85

$$$$
>  <molecule>
CCCCC(Cc1c[nH]c2ccccc12)NC(=O)c1cnc(N2Cc3cn[nH]c3C2)s1 (centres unmarked)

>  <experimental.readout>
pIC50

>  <recorded.measurement>
5.62

$$$$
>  <molecule>
CCCCC(Cc1c[nH]c2ccccc12)NC(=O)c1cnc(N2CCn3ncnc3C2)s1 (centres unmarked)

>  <experimental.readout>
pIC50

>  <recorded.measurement>
5.66

$$$$
>  <molecule>
CCCCC(Cc1c[nH]c2ccccc12)NC(=O)c1cnc(N2CCc3nn(C)cc3C2)s1 (centres unmarked)

>  <experimental.readout>
pIC50

>  <recorded.measurement>
5.92

$$$$

a: CCCCC(Cc1c[nH]c2ccccc12)NC(=O)c1cnc(N2CCn3nncc3C2)s1 (centres unmarked)
b: CCCCC(Cc1c[nH]c2ccccc12)NC(=O)c1cnc(N2CCc3noc(C(F)(F)F)c3C2)s1 (centres unmarked)
Of a and b , which shows the smaller pIC50 value? Response format: the label of the selected entry.
a
